- testTarget: EcPBP3 (Escherichia coli)
- Construct: For assays, selections and SPR a construct with residues 60–588 which has the N-terminal domain, but not the transmembrane helix, was used; made in house
- assayText: Fluorescence polarisation competition assay with fluorescent Bicycle tracer (tracer 1 / BCY12820)
- Format: binding
- details: protein 9.4 nM sets sensitivity limit, top concentration 5 µM, read-out: Ki (nM) by fluorescence polarisation with tracer 1 (BCY12820 as tracer), Geometric mean (Lower 95% CI; Upper 95% CI, n=number of values)
reportedProperty: Ki

| molecule | reportedProperty | reportedResult |
| --- | --- | --- |
| CC(C)[C@@H]1NC(=O)[C@H](Cc2c[nH]c3ccccc23)NC(=O)[C@@H]2CCCN2C(=O)[C@@H]2CSCCC(=O)N3CN(CN(C3)C(=O)CCSC[C@H](NC(=O)[C@H](C)N)C(=O)N[C@@H](CO)C(=O)N[C@@H](Cc3ccccc3)C(=O)N3CCC[C@H]3C(=O)N[C@@H](C)C(=O)N2)C(=O)CCSC[C@@H](C(=O)N[C@@H](C)C(N)=O)NC(=O)CNC(=O)[C@H](CCC(=O)O)NC1=O [Peptide 19] | Ki | < 9 nM |

IN: # Ki lookup, item CC(C)[C@@H]1NC(=O)[C@H](Cc2c[nH]c3ccccc23)NC(=O)[C@@H]2CCCN2C(=O)[C@@H]2CSCCC(=O)N3CN(CN(C3)C(=O)CCSC[C@H](NC(=O)[C@H](C)N)C(=O)N[C@@H](CO)C(=O)N[C@@H](Cc3ccccc3)C(=O)N3CCC[C@H]3C(=O)N[C@@H](CCCCN)C(=O)N2)C(=O)CCSC[C@@H](C(=O)N[C@@H](C)C(N)=O)NC(=O)CNC(=O)[C@H](C)NC1=O [Peptide 23]
OUT: 9.08 nM

---

Recorded Kd for the following compounds
- testTarget: EcPBP3 (Escherichia coli, UniProt P0AD68)
- Construct: For assays, selections and SPR a construct with residues 60–588 which has the N-terminal domain, but not the transmembrane helix, was used; made in house
- Sequence (P0AD68 60-588): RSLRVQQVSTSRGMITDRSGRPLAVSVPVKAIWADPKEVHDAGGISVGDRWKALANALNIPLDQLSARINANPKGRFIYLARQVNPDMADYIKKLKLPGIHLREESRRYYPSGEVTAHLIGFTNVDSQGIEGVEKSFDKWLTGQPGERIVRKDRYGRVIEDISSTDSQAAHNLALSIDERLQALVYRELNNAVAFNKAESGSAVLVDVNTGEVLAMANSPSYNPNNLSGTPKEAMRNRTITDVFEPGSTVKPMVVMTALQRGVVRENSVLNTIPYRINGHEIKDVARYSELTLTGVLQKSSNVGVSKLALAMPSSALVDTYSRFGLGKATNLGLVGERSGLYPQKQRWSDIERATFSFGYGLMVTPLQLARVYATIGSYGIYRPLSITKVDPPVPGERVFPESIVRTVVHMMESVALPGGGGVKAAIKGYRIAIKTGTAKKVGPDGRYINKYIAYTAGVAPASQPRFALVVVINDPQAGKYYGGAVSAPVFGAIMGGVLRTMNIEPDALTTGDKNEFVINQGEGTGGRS
- assayText: SPR binding assay on immobilised EcPBP3
- details: 37 °C, kinetic fitting; NB = no binding at 2500 nM (Tables S-4, S-5) or 5000 nM (Table 1); read-out: Kd (nM) by SPR (geomean)
Please reply with the bare figure in nM and do not write the unit itself.

| compound | testTarget | reportedProperty | reportedResult |
| --- | --- | --- | --- |
| CC(C)[C@@H]1NC(=O)[C@H](Cc2c[nH]c3ccccc23)NC(=O)[C@H](C)NC(=O)[C@@H]2CSCCC(=O)N3CN(CN(C3)C(=O)CCSC[C@H](NC(=O)[C@H](C)N)C(=O)N[C@@H](CO)C(=O)N[C@@H](Cc3ccccc3)C(=O)N3CCC[C@H]3C(=O)N[C@@H](CCCCN)C(=O)N2)C(=O)CCSC[C@@H](C(=O)N[C@@H](C)C(N)=O)NC(=O)CNC(=O)[C@H](CCC(=O)O)NC1=O [Peptide 20] | EcPBP3 (Escherichia coli, UniProt P0AD68) | Kd | 1380 |
| CC(C)[C@@H]1NC(=O)[C@H](Cc2c[nH]c3ccccc23)NC(=O)[C@@H]2CCCN2C(=O)[C@@H]2CSCCC(=O)N3CN(CN(C3)C(=O)CCSC[C@H](NC(=O)[C@H](C)N)C(=O)N[C@@H](CO)C(=O)N[C@@H](Cc3ccccc3)C(=O)N3CCC[C@H]3C(=O)N[C@@H](CCCCNC(=N)N)C(=O)N2)C(=O)CCSC[C@@H](C(=O)N[C@@H](C)C(N)=O)NC(=O)CNC(=O)[C@H](CCC(=O)O)NC1=O [Peptide 25] | EcPBP3 (Escherichia coli, UniProt P0AD68) | Kd | 2.85 |

IN: // Kd lookup, key: CC(C)[C@@H]1NC(=O)[C@H](Cc2c[nH]c3ccccc23)NC(=O)[C@@H]2CCCN2C(=O)[C@@H]2CSCCC(=O)N3CN(CN(C3)C(=O)CCSC[C@H](NC(=O)[C@H](C)N)C(=O)N[C@@H](CO)C(=O)N[C@@H](Cc3ccccc3)C(=O)N3CCC[C@H]3C(=O)N[C@@H](CCCCN)C(=O)N2)C(=O)CCSC[C@@H](C(=O)N[C@@H](C)C(N)=O)NC(=O)CNC(=O)[C@H](CCC(=O)O)NC1=O [Peptide 2]
OUT: 5.23
